Reference source for all entries: ChEMBL document CHEMBL4334439

# experiment description: Selectivity index, ratio of CC50 for MDCK cells to EC50 for Gaussia tagged A/PR/08/34(H1N1) virus infected in MDCK cells
# Assay type: toxicity, cell-based
# test parameters: dog, read-out: Ratio CC50/EC50
readout name: selectivity ratio

// recorded selectivity ratio for CCN(CC)c1ccc(Oc2ccc(-c3[nH]c4cccc(F)c4c(=O)c3C)cc2F)cc1 : > 10

---

# experiment description: Selectivity index, ratio of CC50 for human Huh7.5.1 cells to EC50 for ZIKV infected in human Huh7.5.1 cells
# Assay type: toxicity, cell-based
# test parameters: read-out: Ratio CC50/EC50
readout name: selectivity ratio

Entry CCN(CC)c1ccc(Oc2ccc(-c3[nH]c4cccc(F)c4c(=O)c3C)cc2F)cc1 — recorded selectivity ratio = > 125

---

# System: Hepatitis C virus
# experiment description: Antiviral activity against GFP-fused HCV JFH-1 harboring K78E/E2-G451R/NS3-M260K/NS5A-T462I mutant infected in human Huh7.5.1 cells assessed as reduction in viral infection at 10 uM preincubated for 2 hrs followed by viral infection and measured after 48 hrs by epifluorescence microscopic analysis relative to control
# Format: functional, Hepacivirus hominis
# Set-up: scale not given: the % may be the effect or the level left
Activity values, listed per item

Example compounds with recorded Activity:
Cc1c(-c2ccc(Oc3ccc(N4CCNCC4)cc3)c(F)c2)[nH]c2cccc(F)c2c1=O = >50%
Cc1c(-c2ccc(Cc3ccc(S(=O)(=O)C(F)(F)F)cc3)cc2)[nH]c2cccc(F)c2c1=O = >50%

Value of Activity reported for the compound Cc1c(-c2ccc(Cc3ccc(S(=N)(=O)C(F)(F)F)cc3)cc2)[nH]c2cccc(F)c2c1=O (stereo unspecified) is >50%

The recorded Activity for entry CN=S(=O)(c1ccc(Cc2ccc(-c3[nH]c4cccc(F)c4c(=O)c3C)cc2)cc1)C(F)(F)F (stereo unspecified) equals >50%

// recorded Activity for Cc1c(-c2ccc(Cc3ccc(SC(F)(F)F)cc3)cc2)[nH]c2cccc(F)c2c1=O : >50%

// Activity lookup, compound = Cc1c(-c2ccc(Cc3ccc(S(F)(F)(F)(F)F)cc3)cc2)[nH]c2cccc(F)c2c1=O , result: >50%

Reported Activity ( Cc1c(-c2ccc(Cc3ccc(C(C)(O)C(F)(F)F)cc3)cc2)[nH]c2cccc(F)c2c1=O (stereo unspecified) ) = >50%

Sure, the documented Activity for COc1ccc(Cc2ccc(-c3[nH]c4cccc(F)c4c(=O)c3C)cc2)cc1 is >50%

// field: Activity; key: C#CCCC1(CCN(CC)c2ccc(Oc3ccc(-c4[nH]c5cccc(F)c5c(=O)c4C)cc3F)cc2)N=N1 ; value = >50%

The compound identified as Cc1c(-c2ccc(Cc3ccc(N4CCCCC4)cc3)cc2)[nH]c2cccc(F)c2c1=O registered its Activity at >50%

Input Cc1c(-c2ccc(OCCCN3CCOCC3)cc2)[nH]c2cccc(F)c2c1=O . Output Activity: >50%

The reported Activity of the compound CCN(CC)c1ccc(Oc2ccc(-c3[nH]c4cccc(F)c4c(=O)c3C)cc2F)cc1 was >50%

Recorded result, CCCN(CC)c1ccc(Oc2ccc(-c3[nH]c4cccc(F)c4c(=O)c3C)cc2F)cc1 , Activity: >50%

The value of Activity measured for the compound Cc1c(-c2ccc(COc3ccc(SC(F)(F)F)cc3)cc2)[nH]c2cccc(F)c2c1=O turned out to be >50%

Input Cc1c(-c2ccc(Oc3ccc(N(C)C)cc3)c(F)c2)[nH]c2cccc(F)c2c1=O . Output Activity: >50%

For reference, reported Activity for Cc1c(-c2ccc(Cc3ccc(SC(F)(F)F)cc3)cc2)[nH]c2c(F)cccc2c1=O stands at >50%

compound CCN(C)c1ccc(Oc2ccc(-c3[nH]c4cccc(F)c4c(=O)c3C)cc2F)cc1 , Activity observed: >50%

The measured Activity associated with CCNc1ccc(Oc2ccc(-c3[nH]c4cccc(F)c4c(=O)c3C)cc2F)cc1 reads >50%

The compound listed as Cc1c(-c2ccc(Oc3ccc(SC(F)(F)F)cc3)c(F)c2)[nH]c2cccc(F)c2c1=O shows Activity equal to >50%

---

# experiment description: Selectivity index, ratio of CC50 for African green monkey Vero cells to EC50 for RSV infected in African green monkey Vero cells
# Format: toxicity
# test parameters: read-out: Ratio CC50/EC50
readout name: selectivity ratio

Recorded selectivity ratio (molecule CCN(CC)c1ccc(Oc2ccc(-c3[nH]c4cccc(F)c4c(=O)c3C)cc2F)cc1 ): > 41

---

# System: Hepatitis C virus
# experiment description: Antiviral activity against EGFP-fused HCV JFH-1 harboring K78E/E2-G451R/NS3-M260K/NS5A-T462I mutant infected in human Huh7.5.1 cells assessed as reduction in viral RNA level after 2 days by qRT-PCR analysis
# Type: functional, organism-based, Hepacivirus hominis
# test parameters: JFH-1, Huh-7.5.1, 48 h
pEC50: −log10 of the molar value.
Returns one of 1 or -1; 1 when pEC50 is >= 5.

Cc1c(-c2ccc(OCCN3CCCCC3)cc2)[nH]c2cccc(F)c2c1=O = -1
Cc1c(-c2ccc(Cc3ccc(SC(F)(F)F)cc3)cc2)[nH]c2cc(F)ccc2c1=O = 1

Is pEC50 for C#CCCC1(CCN(CC)c2ccc(Oc3ccc(-c4[nH]c5cccc(F)c5c(=O)c4C)cc3F)cc2)N=N1 at or above 5? 1

Quick check, pEC50 >= 5? Cc1c(-c2ccc(Cc3ccc(S(=N)(=O)C(F)(F)F)cc3)cc2)[nH]c2cccc(F)c2c1=O (centres undefined) 1

Identify whether the reported pEC50 of the following compound is 5 or greater: COc1ccc(Cc2ccc(-c3[nH]c4cccc(F)c4c(=O)c3C)cc2)cc1 1

Quick check, pEC50 >= 5? CCCN(CC)c1ccc(Oc2ccc(-c3[nH]c4cccc(F)c4c(=O)c3C)cc2F)cc1 1

In plain terms: is recorded pEC50 at least 5 for Cc1c(-c2ccc(OCCCN3CCOCC3)cc2)[nH]c2cccc(F)c2c1=O ? -1

Identify whether the reported pEC50 of the following compound is 5 or greater: CN=S(=O)(c1ccc(Cc2ccc(-c3[nH]c4cccc(F)c4c(=O)c3C)cc2)cc1)C(F)(F)F (centres undefined) 1

Given the entry Cc1c(-c2ccc(Oc3ccc(N4CCCC4)cc3)c(F)c2)[nH]c2cccc(F)c2c1=O , answer whether its pEC50 meets or surpasses 5. 1

Hello, I need to know if CCNc1ccc(Oc2ccc(-c3[nH]c4cccc(F)c4c(=O)c3C)cc2F)cc1 has measured pEC50 not below 5. Thanks! 1

Does Cc1c(-c2ccc(Oc3ccc(N4CCNCC4)cc3)c(F)c2)[nH]c2cccc(F)c2c1=O have a reported pEC50 of at least 5? 1

Please indicate if the recorded pEC50 for CCN(CC)CCOc1ccc(-c2[nH]c3cccc(F)c3c(=O)c2C)cc1 meets or exceeds 5. -1

# check: pEC50 of Cc1c(-c2ccc(Cc3ccc(SC(F)(F)F)cc3)cc2)[nH]c2ccc(F)cc2c1=O is greater than or equal to 5 1

Please tell me: is the compound Cc1c(-c2ccc(COc3ccc(SC(F)(F)F)cc3)cc2)[nH]c2cccc(F)c2c1=O at or over 5 in terms of pEC50? 1

---

# experiment description: Selectivity index, ratio of CC50 for HEK293T cells to EC50 for HIV pseudotyped virions infected in HEK293T cells
# Type: toxicity, cell-based
# test parameters: human, read-out: Ratio CC50/EC50
readout name: selectivity ratio

Entry CCN(CC)c1ccc(Oc2ccc(-c3[nH]c4cccc(F)c4c(=O)c3C)cc2F)cc1 , selectivity ratio reported as > 96

---

# experiment description: Selectivity index, ratio of CC50 for human Huh7.5.1 cells to EC50 for EGFP-fused HCV JFH-1 harboring K78E/E2-G451R/NS3-M260K/NS5A-T462I mutant infected in human Huh7.5.1 cells
# Type: toxicity, cell-based
# test parameters: read-out: Ratio CC50/EC50
readout name: selectivity ratio

Known results for compounds:
Cc1c(-c2ccc(Cc3ccc(C(O)C(F)(F)F)cc3)cc2)[nH]c2cccc(F)c2c1=O (stereo not given) = > 3
Cc1c(-c2ccc(Cc3ccc(OC(F)(F)F)cc3)cc2)[nH]c2cccc(F)c2c1=O = > 6

Sample Cc1c(-c2ccc(Oc3ccc(N(C)C)cc3)c(F)c2)[nH]c2cccc(F)c2c1=O ; selectivity ratio observed: > 10

The compound Cc1c(-c2ccc(Oc3ccc(N4CCCCC4)cc3)c(F)c2)[nH]c2cccc(F)c2c1=O showed selectivity ratio equal to > 100

Lab note: Cc1c(-c2ccc(-c3ccc(SC(F)(F)F)cc3)cc2)[nH]c2cccc(F)c2c1=O gave selectivity ratio of > 4

For record Cc1c(-c2ccc(COc3ccc(SC(F)(F)F)cc3)cc2)[nH]c2cccc(F)c2c1=O the listed selectivity ratio is > 6

Input Cc1c(-c2ccc(Cc3ccc(N4CCOCC4)cc3)cc2)[nH]c2cccc(F)c2c1=O . Output selectivity ratio: > 3

According to the records, this compound Cc1c(-c2ccc(Oc3ccc(SC(F)(F)F)cc3)c(F)c2)[nH]c2cccc(F)c2c1=O displays selectivity ratio of > 27
